Just for reference, patent US8507411B2 is where these values come from.

- Test system: NmuMG
- assayName: cells
- Assay type: cell-based, mouse
- conditionParameters: NmuMG mouse mammary normal epithelial control line; read-out: IC50, NmuMG
pIC50: −log10 of the molar value.
endpoint: pIC50

See these solved cases before continuing.
CON(C1CCC2(C)C(CCC3C2CCC2(C)C(C4=CC(=O)OC4)CCC32O)C1)C1OC(C)C(O)C(O)C1O [11α, 6-deoxy-D-glucoside]: < 4.60
CON(C1CCC2(C)C(CCC3C2CCC2(C)C(C4=CC(=O)OC4)CCC32O)C1)C1OC(CO)C(OC2OC(CO)C(O)C(O)C2O)C(O)C1O (stereo not drawn) [36β, lactoside]: < 4.60

Answer with the recorded pIC50 of CON(C1CCC2(C)C(CCC3C2CCC2(C)C(C4=CC(=O)OC4)CCC32O)C1)C1OC(CO)C(O)C(O)C1O [22α, D-galactoside] only.
< 4.60

----------
Provide the reported pIC50 of each item.
- Test system: MCF7
- assayName: High-throughput calcein AM cytotoxicity assay, MCF7
- Assay type: cell-based, human
- conditionParameters: MCF7 cells; read-out: IC50, MCF7
pIC50: −log10 of the molar value.

See these solved cases before continuing.
CON(C1CCC2(C)C(CCC3C2CCC2(C)C(C4=CC(=O)OC4)CCC32O)C1)C1CC(O)C(O)C(CO)O1 [9α, 2-deoxy-D-galactoside]: < 4.60
CON(C1CCC2(C)C(CCC3C2CCC2(C)C(C4=CC(=O)OC4)CCC32O)C1)C1OC(CO)C(O)C(O)C1O [26α, L-mannoside]: < 4.60
CON(C1CCC2(C)C(CCC3C2CCC2(C)C(C4=CC(=O)OC4)CCC32O)C1)C1OC(CO)C(OC2OC(CO)C(O)C(O)C2O)C(O)C1O (stereo not drawn) [36β, lactoside]: < 4.60
CON(C1CCC2(C)C(CCC3C2CCC2(C)C(C4=CC(=O)OC4)CCC32O)C1)C1OC(CO)C(O)C(O)C1NC(C)=O [34β, N-acetyl-D-galactosaminoside]: < 4.60
CON(C1CCC2(C)C(CCC3C2CCC2(C)C(C4=CC(=O)OC4)CCC32O)C1)C1CC(C)(O)C(O)C(C)O1 [30α, L-mycaroside]: < 4.60

Please state, for each entry, its recorded pIC50.
1. CON(C1CCC2(C)C(CCC3C2CCC2(C)C(C4=CC(=O)OC4)CCC32O)C1)C1OC(CO)C(O)C(O)C1O [27α, D-mannoside]
2. CON([C@H]1CC[C@@]2(C)[C@H](CC[C@@H]3[C@@H]2CC[C@]2(C)[C@@H](C4=CC(=O)OC4)CC[C@]32O)C1)[C@@H]1O[C@H](CO)[C@H](O)[C@H](O)[C@H]1O [22β, D-galactoside]
3. CON([C@H]1CC[C@@]2(C)[C@H](CC[C@@H]3[C@@H]2CC[C@]2(C)[C@@H](C4=CC(=O)OC4)CC[C@]32O)C1)[C@@H]1O[C@H](CO)[C@@H](O)[C@H](O)[C@@H]1O [27β, D-mannoside]
4. CON([C@H]1CC[C@@]2(C)[C@H](CC[C@@H]3[C@@H]2CC[C@]2(C)[C@@H](C4=CC(=O)OC4)CC[C@]32O)C1)[C@@H]1C[C@@](C)(O)[C@@H](O)[C@H](C)O1 [30β, L-mycaroside]
5. CON([C@H]1CC[C@@]2(C)[C@H](CC[C@@H]3[C@@H]2CC[C@]2(C)[C@@H](C4=CC(=O)OC4)CC[C@]32O)C1)[C@@H]1O[C@H](CO)[C@@H](O)[C@@H](O)[C@H]1O [18β, D-alloside]
6. CON(C1CCC2(C)C(CCC3C2CCC2(C)C(C4=CC(=O)OC4)CCC32O)C1)C1OCC(O)C(O)C1O [6α, D-riboside]

1. < 4.60
2. 5.52
3. 5.77
4. 5.74
5. 5.17
6. < 4.60
